# TARGET SYSTEM: full-length beta-Catenin (Uniprot ID P35222) (Homo sapiens)
# Construct: 10 nM full-length beta-Catenin (Uniprot ID P35222)
# Sequence (P35222 whole entry): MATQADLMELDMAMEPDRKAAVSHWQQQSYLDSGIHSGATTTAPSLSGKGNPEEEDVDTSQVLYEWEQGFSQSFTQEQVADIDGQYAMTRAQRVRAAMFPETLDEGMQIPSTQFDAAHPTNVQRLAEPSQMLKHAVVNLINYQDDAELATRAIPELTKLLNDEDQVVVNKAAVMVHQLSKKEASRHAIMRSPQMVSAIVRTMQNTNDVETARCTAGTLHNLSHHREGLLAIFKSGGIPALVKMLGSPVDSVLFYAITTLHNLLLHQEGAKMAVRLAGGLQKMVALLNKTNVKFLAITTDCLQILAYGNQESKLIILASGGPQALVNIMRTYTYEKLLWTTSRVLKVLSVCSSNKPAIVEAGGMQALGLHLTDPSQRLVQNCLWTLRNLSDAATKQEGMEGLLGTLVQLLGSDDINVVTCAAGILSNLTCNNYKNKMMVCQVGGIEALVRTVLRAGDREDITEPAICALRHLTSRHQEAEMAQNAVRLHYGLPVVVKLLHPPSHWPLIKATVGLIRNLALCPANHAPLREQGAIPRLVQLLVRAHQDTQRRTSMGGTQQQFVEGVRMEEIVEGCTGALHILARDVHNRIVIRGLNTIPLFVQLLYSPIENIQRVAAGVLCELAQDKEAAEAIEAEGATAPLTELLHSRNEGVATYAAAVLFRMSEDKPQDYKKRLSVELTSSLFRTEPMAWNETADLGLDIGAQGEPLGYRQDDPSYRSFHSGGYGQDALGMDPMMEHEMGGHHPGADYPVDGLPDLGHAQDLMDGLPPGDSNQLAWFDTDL
# ASSAY PROTOCOL: Fluorescence polarization IC50 (beta-catenin / 5FAM-TCF4 10-53 competition)
# Type: binding
# RECORDED CONDITIONS: fluorescence polarization, beta-catenin; read-out: FP EC50
Sorting guide: entries reporting IC50 beneath 600 nM go in the Condition met pile, the rest go in the Condition not met pile.

Problem: Threshold test, IC50 < 600 nM: CC(=O)N1CCC[C@]12CC=CCCCC1(CCCC=CCCCOC(=O)N3CC[C@@](C(=O)N[C@@H](Cc4ccccc4Cl)C(=O)N[C@@H](Cc4csc5ccccc45)C(=O)N[C@@H](CO)C(N)=O)(C3)NC(=O)[C@H](CC(C)C)NC(=O)[C@H](Cc3ccccc3)NC(=O)[C@H](C)NC(=O)[C@H](C)NC(=O)[C@H](CCC(=O)O)NC(=O)[C@H](CC(=O)O)NC1=O)NC(=O)[C@H](CC(C)(C)C)NC(=O)[C@H](CC(=O)O)NC2=O (stereo partly shown) [I-1067]
Solution: Condition met

Problem: Threshold test, IC50 < 600 nM: CCCC[C@@H]1NC(=O)[C@H](CC(=O)O)NC(=O)[C@]2(CC=CCCCC3(CCCC=CCCCOC(=O)N4CC[C@@](C(=O)N[C@@H](Cc5ccccc5Cl)C(=O)N[C@@H](Cc5csc6ccccc56)C(=O)N[C@@H](CC(C)C)C(N)=O)(C4)NC(=O)[C@H](CC(C)C)NC(=O)[C@H](Cc4ccccc4)NC(=O)[C@H](C)NC(=O)[C@H](C)NC(=O)[C@H](CC(=O)O)NC(=O)[C@H](CC(=O)O)NC3=O)NC1=O)CCCN2C(C)=O (stereo partly shown) [I-1420]
Solution: Condition met

Problem: Threshold test, IC50 < 600 nM: CC(=O)N1CCC[C@]12CC=CCCCC1(CCCC=CCCCOC(=O)N3CC[C@@](C(=O)N[C@@H](Cc4ccsc4)C(=O)N[C@@H](Cc4c[nH]c5ccccc45)C(=O)N[C@@H](CCC(N)=O)C(N)=O)(C3)NC(=O)[C@H](CC(C)C)NC(=O)[C@H](Cc3ccccc3)NC(=O)[C@H](C)NC(=O)[C@H](C)NC(=O)[C@H](CC(=O)O)NC(=O)[C@H](CC(=O)O)NC1=O)NC(=O)[C@H](CC(C)(C)C)NC(=O)[C@H](CC(=O)O)NC2=O (stereo partly shown)
Solution: Condition met

Problem: Threshold test, IC50 < 600 nM: CC(=O)N1CCC[C@]12CC=CCCCC1(CCCC=CCCCCCC[C@@](C)(C(=O)N[C@@H](Cc3ccccc3)C(=O)N[C@@H](Cc3csc4ccccc34)C(=O)N[C@@H](CCC(N)=O)C(N)=O)NC(=O)[C@H](C(C)C)NC(=O)[C@H](Cc3ccccn3)NC(=O)[C@H](C)NC(=O)[C@H](C)NC(=O)[C@H](CCC(=O)O)NC(=O)[C@H](CC(=O)O)NC1=O)NC(=O)[C@H](C)NC(=O)[C@H](CC(=O)O)NC2=O (stereo partly shown)
Solution: Condition not met

Problem: Threshold test, IC50 < 600 nM: CC(=O)N1CCC[C@H]1C(=O)N[C@@H](CC(=O)O)C(=O)N[C@@H](CC(C)(C)C)C(=O)N[C@]1(C)CCCC=CCCCOC(=O)N2CC[C@@](C(=O)N[C@@H](Cc3ccsc3)C(=O)N[C@@H](Cc3csc4ccccc34)C(=O)N[C@@H](CCC(N)=O)C(N)=O)(C2)NC(=O)[C@H](CC(C)C)NC(=O)[C@H](Cc2ccccc2)NC(=O)[C@H](C)NC(=O)[C@H](C)NC(=O)[C@H](CC(=O)O)NC(=O)[C@H](CC(=O)O)NC1=O
Solution: Condition met

Problem: Threshold test, IC50 < 600 nM: CC(=O)N1CCC[C@]12CC=CCCCC1(CCCC=CCCCCCC[C@@](C)(C(=O)N[C@@H](Cc3ccccc3)C(=O)N[C@@H](Cc3csc4ccccc34)C(=O)N[C@@H](CCC(N)=O)C(N)=O)NC(=O)[C@H](CC(N)=O)NC(=O)[C@H](Cc3ccccc3)NC(=O)[C@H](C)NC(=O)[C@H](C)NC(=O)[C@H](CC(=O)O)NC(=O)[C@H](CC(=O)O)NC1=O)NC(=O)[C@H](C)NC(=O)[C@H](CC(=O)O)NC2=O (stereo partly shown) [I-343]
Solution: Condition met

Problem: Threshold test, IC50 < 600 nM: CC(=O)N1CCC[C@]12CC=CCCCC1(CCCC=CCCCOC(=O)N3CC[C@@](C(=O)N[C@@H](Cc4ccsc4)C(=O)N[C@@H](Cc4csc5ccccc45)C(=O)N[C@@H](CO)C(N)=O)(C3)NC(=O)[C@H](CCO)NC(=O)[C@H](Cc3ccccc3)NC(=O)[C@H](C)NC(=O)[C@H](C)NC(=O)[C@H](CN(CC(=O)O)CC(F)(F)F)NC(=O)[C@H](CC(=O)O)NC1=O)NC(=O)[C@H](CC(C)(C)C)NC(=O)[C@H](CC(=O)O)NC2=O (stereo partly shown) [I-959]
Solution: Condition not met

Problem: Threshold test, IC50 < 600 nM: CC(=O)N1CCC[C@]12CC=CCCCC1(CCCC=CCCCOC(=O)N3CC[C@@](C(=O)N[C@@H](Cc4ccsc4)C(=O)N[C@@H](Cc4csc5ccccc45)C(=O)N[C@@H](C)C(N)=O)(C3)NC(=O)[C@H](CC(N)=O)NC(=O)[C@H](Cc3ccccc3)NC(=O)[C@H](C)NC(=O)[C@H](C)NC(=O)[C@H](CN(CC(=O)O)CC(F)(F)F)NC(=O)[C@H](CC(=O)O)NC1=O)NC(=O)[C@H](CC(C)(C)C)NC(=O)[C@H](CC(=O)O)NC2=O (stereo partly shown) [I-945]
Solution: Condition not met

Problem: Threshold test, IC50 < 600 nM: CC[C@H](C)[C@@H]1NC(=O)[C@H](CC(=O)O)NC(=O)[C@]2(CC=CCCCC3(CCCC=CCCCCCC[C@@](C)(C(=O)N[C@@H](Cc4ccccc4)C(=O)N[C@@H](Cc4c[nH]c5ccccc45)C(N)=O)NC(=O)[C@H](CCC(N)=O)NC(=O)[C@H](Cc4ccccc4)NC(=O)[C@H](C)NC(=O)[C@H](C)NC(=O)[C@H](CCC(=O)O)NC(=O)[C@H](CC(=O)O)NC3=O)NC1=O)CCCN2C(C)=O (stereo partly shown) [I-193]
Solution: Condition met

====

Please provide measured IC50 for the entries that follow.
# TARGET SYSTEM: beta-catenin/TCF4 engagement (Homo sapiens, UniProt P35222)
# Construct: expressed in transfected cells; host or cells: HEK293
# ASSAY PROTOCOL: Nano-BRET target engagement assay (B-cat-Halo & TCF4-Luc in HEK293 cells)
# Assay type: cell-based
# RECORDED CONDITIONS: read-out: NanoBRET Abs IC50

Problem: Give IC50 for CCCC[C@@H]1NC(=O)[C@H](Cc2cccc(C(=O)O)c2)NC(=O)[C@H](CC(=O)O)NC(=O)C2(CCCC=CCCCOC(=O)N3CC[C@@](C(=O)N[C@@H](Cc4ccsc4)C(=O)N[C@@H](Cc4csc5ccccc45)C(=O)N[C@@H](Cc4ccccc4)C(N)=O)(C3)NC(=O)[C@H](CC(C)C)NC(=O)[C@H](Cc3ccccc3)NC(=O)[C@H](C)NC1=O)CCCC=CC[C@]1(CCCN1C(C)=O)C(=O)N[C@@H](CC(=O)O)C(=O)N[C@@H](CC(C)(C)C)C(=O)N2 (some centres unmarked) [I-1913]
Solution: 17.5 µM

Problem: Give IC50 for CCCCCCSSCCOC(=O)C[C@@H]1NC(=O)[C@]2(CC=CCCCC3(CCCC=CCCCOC(=O)N4CC[C@@](C(=O)N[C@@H](Cc5ccsc5)C(=O)N[C@@H](Cc5csc6ccccc56)C(=O)N[C@@H](CCC(N)=O)C(N)=O)(C4)NC(=O)[C@H](CC(C)C)NC(=O)[C@H](Cc4ccccc4)NC(=O)[C@H](C)NC(=O)[C@H](C)NC(=O)[C@H](CC(=O)O)NC(=O)[C@H](CC(=O)O)NC3=O)NC(=O)[C@H](CC(C)(C)C)NC1=O)CCCN2C(C)=O (some centres unmarked) [I-1959]
Solution: > 20 µM

Problem: Give IC50 for CC(=O)N1CCC[C@]12CC=CCCCC1(CCCC=CCCCOC(=O)N3CC[C@@](C(=O)N[C@@H](Cc4ccsc4)C(=O)N[C@@H](Cc4csc5ccccc45)C(=O)N[C@@H](C)C(N)=O)(C3)NC(=O)[C@H](CC(C)C)NC(=O)[C@H](Cc3ccccc3)NC(=O)[C@H](C)NC(=O)[C@H](CC(N)=O)NC(=O)[C@H](Cc3cccc(C(=O)O)c3)NC(=O)[C@H](CC(=O)O)NC1=O)NC(=O)[C@H](CC(C)(C)C)NC(=O)[C@H](CC(=O)O)NC2=O (some centres unmarked) [I-2049]
Solution: 4.5 µM

Problem: Give IC50 for COCCOCCOCCOCCC(=O)NCCCC[C@@H]1NC(=O)[C@H](C)NC(=O)[C@H](CC(=O)O)NC(=O)[C@H](CC(=O)O)NC(=O)C2(CCCC=CCCCOC(=O)N3CC[C@@](C(=O)N[C@@H](Cc4ccsc4)C(=O)N[C@@H](Cc4csc5ccccc45)C(=O)N[C@@H](CCC(N)=O)C(N)=O)(C3)NC(=O)[C@H](CC(N)=O)NC(=O)[C@H](Cc3ccccc3)NC1=O)CCCC=CC[C@]1(CCCN1C(C)=O)C(=O)N[C@@H](CC(=O)O)C(=O)N[C@@H](CC(C)(C)C)C(=O)N2 (some centres unmarked) [I-894]
Solution: > 20 µM

Problem: Give IC50 for CC(=O)N1CCC[C@]12CC=CCCCC1(CCCC=CCCCCOC(=O)N3CC[C@@](C(=O)N[C@@H](Cc4ccsc4)C(=O)N[C@@H](Cc4csc5ccccc45)C(=O)N[C@@H](Cc4c[nH]cn4)C(=O)N[C@H](C)C(N)=O)(C3)NC(=O)[C@H](CC(N)=O)NC(=O)[C@H](Cc3ccccc3)NC(=O)[C@H](C)NC(=O)[C@H](C)NC(=O)[C@H](CC(=O)O)NC(=O)[C@H](CC(=O)O)NC1=O)NC(=O)[C@H](CC(C)(C)C)NC(=O)[C@H](CC(=O)O)NC2=O (some centres unmarked) [I-832]
Solution: 39.8 µM
